- target_of_assay: GST-Co-NF-kB (Capsaspora owczarzaki, UniProt F1ARL5 200-546)
- Sequence: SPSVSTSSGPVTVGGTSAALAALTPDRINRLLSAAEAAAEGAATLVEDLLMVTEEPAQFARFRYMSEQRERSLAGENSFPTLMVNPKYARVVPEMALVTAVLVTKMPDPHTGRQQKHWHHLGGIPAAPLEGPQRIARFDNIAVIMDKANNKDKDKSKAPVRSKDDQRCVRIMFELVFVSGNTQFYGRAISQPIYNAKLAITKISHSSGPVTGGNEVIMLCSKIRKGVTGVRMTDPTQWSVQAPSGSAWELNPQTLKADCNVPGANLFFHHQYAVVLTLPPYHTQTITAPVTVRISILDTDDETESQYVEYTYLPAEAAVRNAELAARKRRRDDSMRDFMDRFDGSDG
- assay_explanation: protein-binding microarray (PBM); PBM: ~300 nM protein, 6 mM HEPES pH 7.8, 80 mM KCl, 0.5 mM EDTA, 0.5 mM EGTA, 6% glycerol, 35 ng/ul poly-dIdC, 1% milk, 1 h, room temperature; high values mean tight binding
- condition_details: dsDNA, one strand shown
observation_type: binding signal (z-score)
Respond numerically; units are z-score and should not be typed.

CCGATTAACATCAGGGAAACACATGATGTTAATCGGGTCTTGATTCGCTTGACGCTGCTG : 3.05

-- ask Entry under review: CCGATTAACATCAGATATTCCCATGATGTTAATCGGGTCTTGATTCGCTTGACGCTGCTG . Reported binding signal?
-- reply 2.8

-- ask Fill in the blank: the reported binding signal of CCGATTAACATCAAATATACCCCTGATGTTAATCGGGTCTTGATTCGCTTGACGCTGCTG is ____.
-- reply 5.87

-- ask Looking for the measured binding signal of CCGATTAACATCATGCGGGAAAATGATGTTAATCGGGTCTTGATTCGCTTGACGCTGCTG , can you help?
-- reply 4.47

-- ask What value of binding signal has been reported for the following sequence? CCGATTAACATCAAATTCCCAGTTGATGTTAATCGGGTCTTGATTCGCTTGACGCTGCTG
-- reply 2.97

-- ask // query binding signal value for entry CCGATTAACATCAGGGAGATTTATGATGTTAATCGGGTCTTGATTCGCTTGACGCTGCTG
-- reply 2.8

-- ask Which binding signal value belongs to CCGATTAACATCAGCGATTCCCCTGATGTTAATCGGGTCTTGATTCGCTTGACGCTGCTG ?
-- reply 5.5

-- ask Dear colleague, I am looking for the recorded binding signal of the following sequence: CCGATTAACATCAAAACAATCCCTGATGTTAATCGGGTCTTGATTCGCTTGACGCTGCTG
-- reply 1.41

-- ask Value lookup for binding signal; key = CCGATTAACATCAGAAATATCCCTGATGTTAATCGGGTCTTGATTCGCTTGACGCTGCTG
-- reply 1.62

---

- target_of_assay: GST-Co-NF-kB (Capsaspora owczarzaki, UniProt F1ARL5 200-546)
- Sequence: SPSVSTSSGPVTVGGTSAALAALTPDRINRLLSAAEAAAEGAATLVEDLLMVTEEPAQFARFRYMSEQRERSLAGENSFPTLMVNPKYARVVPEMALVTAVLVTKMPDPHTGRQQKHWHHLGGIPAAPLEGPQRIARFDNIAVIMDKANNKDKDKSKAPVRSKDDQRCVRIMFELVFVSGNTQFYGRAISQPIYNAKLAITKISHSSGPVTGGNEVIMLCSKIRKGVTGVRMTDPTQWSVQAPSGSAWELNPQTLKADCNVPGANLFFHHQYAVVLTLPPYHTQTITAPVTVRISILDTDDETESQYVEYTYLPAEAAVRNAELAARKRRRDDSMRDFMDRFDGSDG
- assay_explanation: protein-binding microarray (PBM); PBM: ~300 nM protein, 6 mM HEPES pH 7.8, 80 mM KCl, 0.5 mM EDTA, 0.5 mM EGTA, 6% glycerol, 35 ng/ul poly-dIdC, 1% milk, 1 h, room temperature; high values mean tight binding
- condition_details: dsDNA, one strand shown
observation_type: binding signal (z-score)
Report as a plain number; the unit z-score is understood.

Worked examples, 4 sequences total:
CCGATTAACATCAAATATTTCCCTGATGTTAATCGGGTCTTGATTCGCTTGACGCTGCTG : 5.89
CCGATTAACATCACGGCTTTCCCTGATGTTAATCGGGTCTTGATTCGCTTGACGCTGCTG : 2.32
CCGATTAACATCAACGTGGGAAATGATGTTAATCGGGTCTTGATTCGCTTGACGCTGCTG : 2.91
CCGATTAACATCAAGGTACCCCCTGATGTTAATCGGGTCTTGATTCGCTTGACGCTGCTG : 4.58

-- ask Quick check: binding signal of CCGATTAACATCAGGGAAATACCTGATGTTAATCGGGTCTTGATTCGCTTGACGCTGCTG ?
-- reply 3.06

-- ask binding signal for CCGATTAACATCAAAGTTTCCCCTGATGTTAATCGGGTCTTGATTCGCTTGACGCTGCTG ?
-- reply 10.6

-- ask Can you look up the measured binding signal of CCGATTAACATCACGGGGAAAACTGATGTTAATCGGGTCTTGATTCGCTTGACGCTGCTG for me?
-- reply 10.2

-- ask Query (sequence): CCGATTAACATCACTGGGAATTCTGATGTTAATCGGGTCTTGATTCGCTTGACGCTGCTG ; field requested: binding signal
-- reply 3.79

-- ask Given CCGATTAACATCAGCAAATCCCCTGATGTTAATCGGGTCTTGATTCGCTTGACGCTGCTG , state its recorded binding signal.
-- reply 2.93

---

- target_of_assay: GST-Dm-Relish (Drosophila melanogaster, UniProt Q94527 99-473)
- Sequence: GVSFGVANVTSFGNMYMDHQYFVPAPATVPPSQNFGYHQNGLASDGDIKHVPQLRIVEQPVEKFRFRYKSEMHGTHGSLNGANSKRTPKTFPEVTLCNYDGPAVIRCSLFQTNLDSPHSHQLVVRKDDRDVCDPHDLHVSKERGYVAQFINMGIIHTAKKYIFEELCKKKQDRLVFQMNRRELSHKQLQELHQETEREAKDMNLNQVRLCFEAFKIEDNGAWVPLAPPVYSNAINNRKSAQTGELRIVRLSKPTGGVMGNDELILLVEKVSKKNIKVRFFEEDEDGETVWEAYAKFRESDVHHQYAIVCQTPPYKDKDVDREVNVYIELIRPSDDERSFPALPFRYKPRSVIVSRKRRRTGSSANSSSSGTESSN
- assay_explanation: protein-binding microarray (PBM); PBM: ~300 nM protein, 6 mM HEPES pH 7.8, 80 mM KCl, 0.5 mM EDTA, 0.5 mM EGTA, 6% glycerol, 35 ng/ul poly-dIdC, 1% milk, 1 h, room temperature; Ap Aiptasia and Nv Nematostella (sea anemones) / Co Capsaspora / Aq Amphimedon (sponge) / Dm Drosophila / Hu human; RHD is the Rel homology domain; high values mean tight binding
- condition_details: dsDNA, one strand shown
Returns one of true or false; true when binding signal is >= 3 z-score.

// known answers, use as guide
CCGATTAACATCAGGAATATACCTGATGTTAATCGGGTCTTGATTCGCTTGACGCTGCTG : false
CCGATTAACATCAAAGTATCCCCTGATGTTAATCGGGTCTTGATTCGCTTGACGCTGCTG : true
CCGATTAACATCAAAGTACCCCCTGATGTTAATCGGGTCTTGATTCGCTTGACGCTGCTG : true
CCGATTAACATCAGGAACATCCCTGATGTTAATCGGGTCTTGATTCGCTTGACGCTGCTG : false

-- ask # bool: binding signal of CCGATTAACATCAGGGGATGAACTGATGTTAATCGGGTCTTGATTCGCTTGACGCTGCTG >= 3 z-score
-- reply true

-- ask Has CCGATTAACATCAGGGGGTAATATGATGTTAATCGGGTCTTGATTCGCTTGACGCTGCTG a recorded binding signal greater than or equal to 3 z-score?
-- reply false

-- ask // inclusive: binding signal at least 3 z-score? input: CCGATTAACATCACGAAATCCCCTGATGTTAATCGGGTCTTGATTCGCTTGACGCTGCTG
-- reply true

-- ask Decide: binding signal of CCGATTAACATCACTGTTTTCCCTGATGTTAATCGGGTCTTGATTCGCTTGACGCTGCTG >= 3 z-score?
-- reply false

-- ask # bool: binding signal of CCGATTAACATCAGGGGGGGTACTGATGTTAATCGGGTCTTGATTCGCTTGACGCTGCTG >= 3 z-score
-- reply true

-- ask Exam item: decide whether the reported binding signal for CCGATTAACATCACCCCATCTCGTGATGTTAATCGGGTCTTGATTCGCTTGACGCTGCTG is at least 3 z-score.
-- reply false

-- ask Is binding signal for CCGATTAACATCAATACCCCCCCTGATGTTAATCGGGTCTTGATTCGCTTGACGCTGCTG at or above 3 z-score?
-- reply true

-- ask Say whether CCGATTAACATCAGGGGGTAAAATGATGTTAATCGGGTCTTGATTCGCTTGACGCTGCTG shows binding signal of 3 z-score or more.
-- reply true

-- ask Tell me whether binding signal is at least 3 z-score here: CCGATTAACATCACGATTTTCCCTGATGTTAATCGGGTCTTGATTCGCTTGACGCTGCTG
-- reply false

-- ask In plain terms: is recorded binding signal at least 3 z-score for CCGATTAACATCAACGTATTCCCTGATGTTAATCGGGTCTTGATTCGCTTGACGCTGCTG ?
-- reply false
